apparent KD of MS2 coat protein: recorded values
- Test system: MS2 coat protein
- assay-text: apparent KD of MS2 coat protein; higher = weaker reporter binding
- run-conditions: Eterna round: R107; input ligand: theophylline 2 mM
measured-endpoint: apparent KD of MS2 coat protein (nM)

sequence-code: CUCCCGUGGUCGGCCGCCACUGGAGGCCUCGCGCGACAUGAGGAUCACCCAUGUUGGCCCGGCCUCAGGACCGGGAUCGCGUGAG [#1 Same State - Tryptophan B Attempt #7 (HarryS)]
measured-endpoint: apparent KD of MS2 coat protein
value-measured: 11.9
//
sequence-code: AAAUAAAUACAUGAGGAUCACCCAUGUGAAGGAGCGGCCGUUAGGCCAGGUAGGUCGCGCAUGAAUAACUCCGUGCAAAAGCACA [MAT - Exclusion Arginine A - Mod of Eli - D18]
measured-endpoint: apparent KD of MS2 coat protein
value-measured: 13.3
//
sequence-code: ACAUGAGGAUCACCCAUGUACAUCACCCGACGAGGACCGGUACGGCCGCCACUCGGGUAUAUAUUUACAUCGGGUGAUUUUACGU [#23 Tryptophan A Same State]
measured-endpoint: apparent KD of MS2 coat protein
value-measured: 115
//
sequence-code: UGUAUGUGAUCUGAUACCAGCGAUGAUAACCUGAGGAUCACCCUGGUAUGGCGAAAGCCUCGCCCUUGGCAGCAGAUCGCAUACU
measured-endpoint: apparent KD of MS2 coat protein
value-measured: 30.7
//
sequence-code: AAGGGACAUGAGGAUCACCCAUGUACCGAAGGAGCGGCAGAGAUGCCAGGUAGGUCGCGGUACUUGCCGGGUCAUUCAUGCAAAA [Teanbe]
measured-endpoint: apparent KD of MS2 coat protein
value-measured: 21.9
//
sequence-code: GCGAUGGAGCGAAGGAGCGUGCUAGUACAUGAGGAUCACCCAUGUGAGUCGCAGCGCUAAGCACAGGUAGGUCGCGCUCCAUCGC [EAB NP+V+V2 #12]
measured-endpoint: apparent KD of MS2 coat protein
value-measured: 49.7
//
sequence-code: GGUUACUCUACGGCCGCCACUGUAAUGUAAAGAUACCUGUACAUGACAUGAGGAUCACCCAUGUACAGGACCGGGUAGUGUAACC [Tryptophan B 17]
measured-endpoint: apparent KD of MS2 coat protein
value-measured: 343
//
sequence-code: GUAUACAUGAGGAUCACCCAUGUACCAGAAGGAGCGCUGGAAACAGCAGGUAGGUCGCUGGUAGGUCCUCUAUCUAGACGUUCUU [EAA NP+V+V2 #6]
measured-endpoint: apparent KD of MS2 coat protein
value-measured: 157
//
sequence-code: UGUAUGUGAUCUGAUACCAGUCCAACUGGUAAAGCAUGAGGAACACCCAUGCAAAAUUGGGACCCUUGGCAGCAGAUCGCAUACU
measured-endpoint: apparent KD of MS2 coat protein
value-measured: 34.6
//
sequence-code: UCAUGCAGGUCGGCCGCCACUACACACAUGAGGAUCACCCAUGUAGUUACUGGGUGAAGUGGCAGUAGGACCGGGACCUGCACAC [Brourdmod17]
measured-endpoint: apparent KD of MS2 coat protein
value-measured: 849
//
sequence-code: AUGACUAACAAAGAAGAUAAAAUGGGUGAACGAGGACCGGUACGGCCGCCACUCGGACAUGAGGAUCACCCAUGUCCAUGUGCAA [#23 Exclusion Tryptophan A]
measured-endpoint: apparent KD of MS2 coat protein
value-measured: 20.4
//
sequence-code: UGAUACCAGUCGGCCGCCACUAUGCUAGAUACUAGCAAUAAAGGGCGACAUGAGGAUCACCCAUGUAGGACCGGGACUGGUAUCU
measured-endpoint: apparent KD of MS2 coat protein
value-measured: 12

Reference for the values: the supplement of paper PMC9170038
